The reader will find log10(IC50) measurements below, all made with Disintegrin and metalloproteinase domain-containing protein 17 (Sus scrofa).
Sequence (O77636 whole entry, the tested form may be a part): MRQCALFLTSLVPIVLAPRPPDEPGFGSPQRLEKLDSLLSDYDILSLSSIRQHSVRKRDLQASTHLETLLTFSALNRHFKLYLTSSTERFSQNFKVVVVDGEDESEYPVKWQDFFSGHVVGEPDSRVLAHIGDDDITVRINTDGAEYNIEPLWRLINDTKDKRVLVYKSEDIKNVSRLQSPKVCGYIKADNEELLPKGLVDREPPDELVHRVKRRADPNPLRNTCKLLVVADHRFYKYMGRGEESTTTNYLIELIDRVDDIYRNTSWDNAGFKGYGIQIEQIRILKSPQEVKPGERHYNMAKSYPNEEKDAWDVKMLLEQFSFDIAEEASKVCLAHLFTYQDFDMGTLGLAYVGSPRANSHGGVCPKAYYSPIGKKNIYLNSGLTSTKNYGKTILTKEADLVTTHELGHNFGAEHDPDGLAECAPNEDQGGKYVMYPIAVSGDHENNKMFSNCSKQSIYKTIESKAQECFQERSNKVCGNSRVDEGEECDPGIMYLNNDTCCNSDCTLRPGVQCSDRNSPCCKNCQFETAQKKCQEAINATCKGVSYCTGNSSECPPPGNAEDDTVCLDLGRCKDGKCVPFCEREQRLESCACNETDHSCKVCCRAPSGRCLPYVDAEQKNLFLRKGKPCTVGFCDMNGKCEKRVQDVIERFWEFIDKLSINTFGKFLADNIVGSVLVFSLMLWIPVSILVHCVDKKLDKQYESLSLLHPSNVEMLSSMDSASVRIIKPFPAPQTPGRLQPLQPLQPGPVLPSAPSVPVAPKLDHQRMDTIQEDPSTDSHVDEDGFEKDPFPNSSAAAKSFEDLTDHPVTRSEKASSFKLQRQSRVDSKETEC
log10 IC50, µM

// solved cases for log10(IC50) follow
• Cc1cc(COc2ccc(C(=O)NCC3(N4CCN(C(C)C)CC4)C(=O)NC(=O)NC3=O)cc2)c2ccccc2n1 = -2.15
• Cc1cc(COc2ccc(C(=O)NC(c3ccncc3)C3(C)C(=O)NC(=O)NC3=O)cc2)c2ccccc2n1 (configuration not stated) = 0.37
• Cc1cc(COc2ccc(C(=O)NCC3(C(C)C)C(=O)NC(=O)NC3=O)cc2)c2ccccc2n1 = -1.72
• Cc1cc(COc2ccc(C(=O)NCC3(N4CCN(C)CC4)C(=O)NC(=O)NC3=O)cc2)c2ccccc2n1 = -1.24
• Cc1cc(COc2ccc(C(=O)NC3CN(C(=O)C(C)(C)C)CC34C(=O)NC(=O)NC4=O)cc2)c2ccccc2n1 (configuration not stated) = -0.95
• Cc1cc(COc2ccc(C(=O)NCC3(C4CCN(C5CCOCC5)CC4)C(=O)NC(=O)NC3=O)cc2)c2ccccc2n1 = -1.51
• Cc1cc(COc2ccc(C(=O)NCC3(N4CCN(S(C)(=O)=O)CC4)C(=O)NC(=O)NC3=O)cc2)c2ccccc2n1 = -2.70
• Cc1cc(COc2ccc(C(=O)NCC3(Cc4ccccc4)C(=O)NC(=O)NC3=O)cc2)c2ccccc2n1 = -1.74

[in] Quick one: log10(IC50) for Cc1cc(COc2ccc(OC3(C)C(=O)NC(=O)NC3=O)cc2)c2ccccc2n1 ?
[out] 0.11

[in] Same for Cc1cc(COc2ccc(C(=O)NCC3(C4CCN(C(C)C)CC4)C(=O)NC(=O)NC3=O)cc2)c2ccccc2n1
[out] -1.28

[in] Thanks! And C#CCN1CCN(C2(CNC(=O)c3ccc(OCc4cc(C)nc5ccccc45)cc3)C(=O)NC(=O)NC2=O)CC1 ?
[out] -1.21

[in] Next entry: Cc1cc(COc2ccc(/C=C/CC3(C)C(=O)NC(=O)NC3=O)cc2)c2ccccc2n1
[out] 1.04

[in] Field entry: CC(=O)N1CC(NC(=O)c2ccc(OCc3cc(C)nc4ccccc34)cc2)C2(C1)C(=O)NC(=O)NC2=O (configuration not stated)
[out] -1.26

[in] Please answer likewise for Cc1cc(COc2ccc(C(=O)NCC3(C4CCN(C(=O)C(C)(C)C)CC4)C(=O)NC(=O)NC3=O)cc2)c2ccccc2n1
[out] -1.89

[in] // repeat for Cc1cc(COc2ccc(C(=O)NC3CN(C(=O)OC(C)(C)C)CC34C(=O)NC(=O)NC4=O)cc2)c2ccccc2n1 (configuration not stated) and report
[out] -0.89

[in] Another compound to check: Cc1cc(COc2ccc(C(=O)NCC3(N4CCN(C(=O)c5cccnc5)CC4)C(=O)NC(=O)NC3=O)cc2)c2ccccc2n1
[out] -2.00

Attribution: ChEMBL document CHEMBL1138371
